target.under.test: human 5-HT1A receptor (Homo sapiens, UniProt P08908)
Construct: expressed in transfected cells
Sequence (P08908 1-422): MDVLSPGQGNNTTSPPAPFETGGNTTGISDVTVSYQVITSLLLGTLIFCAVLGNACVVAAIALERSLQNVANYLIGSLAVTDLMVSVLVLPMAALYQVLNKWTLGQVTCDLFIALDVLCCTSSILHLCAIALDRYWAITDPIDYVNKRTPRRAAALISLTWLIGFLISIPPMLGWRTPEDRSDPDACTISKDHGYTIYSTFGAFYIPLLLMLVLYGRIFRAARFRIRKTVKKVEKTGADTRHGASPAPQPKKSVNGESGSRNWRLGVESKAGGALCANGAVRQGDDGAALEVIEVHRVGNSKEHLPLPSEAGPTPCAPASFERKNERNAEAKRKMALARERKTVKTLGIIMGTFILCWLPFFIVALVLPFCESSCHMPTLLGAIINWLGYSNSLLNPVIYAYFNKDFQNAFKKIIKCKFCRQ
assay.details: GPCR radioligand binding assay, [3H]-8-OH-DPAT displacement, HEK293 membranes
reported.conditions: 5-HT1A; replicate exp_2; read-out: %inh 5-HT1A exp_2
measured.parameter: inhibition at 10 µM (%)
State the answer as a number, implicitly in %.

Please review the following examples before continuing.
# molecule, unit.label, inhibition at 10 µM
measured = [
    ("O=C(c1ccccc1F)N1CCNCC1", "%", 17),
    ("CC(=O)c1sc(-c2ccc(O)cc2)nc1C [E1]", "%", -19),
    ("O=C1NC(=O)/C(=C\\c2cccs2)N1", "%", -0.195),
    ("c1ccc(Nc2nncs2)cc1", "%", 5.56),
    ("O=C(O)C1CCN(c2ncccn2)CC1", "%", -4.35),
    ("CS(=O)(=O)Nc1ccc(C(=O)O)cc1", "%", 9),
    ("NC(=O)N1CCC(C(=O)O)CC1", "%", 0),
    ("c1cnc2cccnc2c1", "%", 8),
    ("c1cnc2ncccc2c1", "%", 21),
    ("CC1CCc2sc(C(=O)O)cc2C1 (stereo not shown)", "%", -2),
]

Problem: Data request, read-out inhibition at 10 µM, for "Nc1nnc(-c2cccs2)[nH]1"
Solution: 0

Problem: Need inhibition at 10 µM of "Cn1c(N)nc2ccccc21" , thanks.
Solution: 3

Problem: I am curious: what inhibition at 10 µM value has been reported for "O=C(O)c1cnc(-c2ccccc2)s1" ?
Solution: 7.5

Problem: Param item = "Nc1nnc2ccccn12" ; retrieve measured inhibition at 10 µM.
Solution: -32

Problem: Report inhibition at 10 µM for "Cc1cc2ccccc2nc1N" please.
Solution: -25

Problem: # get_value(readout='inhibition at 10 µM', item= "Oc1ccccc1N1CCCCC1" )
Solution: -23

====

target.under.test: human 5-HT7b receptor (Homo sapiens)
Construct: expressed in transfected cells
assay.details: GPCR radioligand binding assay, [3H]-5-CT displacement, HEK293 membranes
reported.conditions: 5-HT7; replicate exp_2
Overview of recorded %inh 5-HT7 exp_2 for various molecules
Number in %, nothing else.

# count of solved cases: 3
# molecule, target.under.test, assay.result
rows = [
    ("CC(=O)c1ccc2c(c1)CCCN2 [C7]", "human 5-HT7b receptor (Homo sapiens)", -18),
    ("N#Cc1ccc2ncsc2c1 [C12]", "human 5-HT7b receptor (Homo sapiens)", -8.5),
    ("CN1CC(=O)NC1=O [B10]", "human 5-HT7b receptor (Homo sapiens)", 0),
]

# next molecule below
Problem: Value lookup for %inh 5-HT7 exp_2; key = CN(C)c1cc(CN)ccn1 [G3]
Solution: -35

====

target.under.test: human 5-HT6 receptor (Homo sapiens)
Construct: expressed in transfected cells
Sequence (P50406 whole entry): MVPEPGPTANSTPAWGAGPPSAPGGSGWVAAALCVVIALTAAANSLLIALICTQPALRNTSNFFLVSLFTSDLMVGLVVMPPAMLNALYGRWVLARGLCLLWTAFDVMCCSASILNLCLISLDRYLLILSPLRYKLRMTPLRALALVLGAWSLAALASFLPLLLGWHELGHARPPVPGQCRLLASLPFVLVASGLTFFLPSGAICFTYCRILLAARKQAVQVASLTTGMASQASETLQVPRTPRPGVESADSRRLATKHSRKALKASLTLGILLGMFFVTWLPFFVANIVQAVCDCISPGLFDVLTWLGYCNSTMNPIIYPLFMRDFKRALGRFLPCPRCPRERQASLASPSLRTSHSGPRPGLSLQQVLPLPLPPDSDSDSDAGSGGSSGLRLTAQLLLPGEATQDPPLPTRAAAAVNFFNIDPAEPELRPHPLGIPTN
assay.details: GPCR radioligand binding assay, [3H]-LSD displacement, HEK293 membranes
reported.conditions: 5-HT6; average of exp_1 and exp_2
%inh 5-HT6 average strictly under 40% means 1; at 40% or over means -1.

Problem: Quick check: does "O=C1CCN(c2ccccn2)CC1" have %inh 5-HT6 average under 40%?
Solution: 1

Problem: Field: below-cutoff. Rule: recorded %inh 5-HT6 average strictly less than 40%. Subject: "O=C1CSC(Nc2ccc(F)cc2)=N1"
Solution: 1

Problem: Answer whether the molecule "Cc1cc(N)no1" has %inh 5-HT6 average strictly less than 40%
Solution: 1

Problem: In plain terms, does "c1ccc(-c2ccncc2)cc1" come in under 40% for %inh 5-HT6 average?
Solution: 1

Problem: Dear colleague, could you confirm whether %inh 5-HT6 average of "Cn1c(CO)nc2ccccc21" falls below 40%? Thanks.
Solution: 1

Problem: Here's an entry: "CC(=O)c1ccc2c(c1)CNCC2" . Is its %inh 5-HT6 average below 40%?
Solution: 1

Problem: Bench note: check whether "Fc1ccc2c(C3CCNCC3)c[nH]c2c1" shows %inh 5-HT6 average below 40%
Solution: -1

Problem: I wonder whether "Nc1ccc(-c2ccccc2)cc1C(=O)O" has %inh 5-HT6 average below 40%. Can you tell?
Solution: 1

Problem: State whether 40% exceeds %inh 5-HT6 average recorded for CC1C(=O)NC(=O)N1c1ccc(Cl)cc1 (stereo not drawn) .
Solution: -1

Problem: Report whether reported %inh 5-HT6 average is lower than 40% (strictly) for CC(CN)N1CCc2sccc2C1 (stereo not drawn)
Solution: 1

Problem: Please determine if "O=c1[nH]c2c(s1)CCC2" is below 40% in terms of %inh 5-HT6 average.
Solution: -1

Problem: Determine whether this molecule shows %inh 5-HT6 average lower than 40% (ties excluded): "Clc1ccc2nnnn2n1"
Solution: 1

Problem: Please let me know if "c1cnc2c(c1)NCCC2" shows %inh 5-HT6 average below 40%.
Solution: 1

Problem: Just wondering, is %inh 5-HT6 average of "O=C(NC1CC1)c1ccccc1O" below 40%?
Solution: 1

Problem: Find out if reported %inh 5-HT6 average for "Cc1cnc(C(F)(F)F)cn1" is less than 40%
Solution: 1

Problem: Determine if Fc1ccc(CC2CCCNC2)cc1 (stereo not drawn) shows %inh 5-HT6 average strictly lower than 40%.
Solution: -1

Problem: Consider "NCC1(c2ccccc2)CCOCC1" . Does its %inh 5-HT6 average lie strictly below 40%?
Solution: 1

Problem: Dear reviewer, please state whether "O=c1ccc2c([nH]1)CCCC2" has %inh 5-HT6 average strictly beneath 40%.
Solution: -1

Problem: Please check: %inh 5-HT6 average for "Cc1cc(C)c2c(=O)[nH]n(C)c2n1" , strictly under 40% or not?
Solution: 1

Problem: Given the entry "CCN(CC)c1cccc(C)c1" , would its reported %inh 5-HT6 average be below 40%?
Solution: 1

====

The molecules listed here are annotated with their V0 / Vi.
target.under.test: bovine factor Xa (Bos taurus)
Construct: bovine factor Xa, Chromogenix, 2 nkat/mL; purchased Chromogenix
Sequence (P00743 234-492 limits assumed): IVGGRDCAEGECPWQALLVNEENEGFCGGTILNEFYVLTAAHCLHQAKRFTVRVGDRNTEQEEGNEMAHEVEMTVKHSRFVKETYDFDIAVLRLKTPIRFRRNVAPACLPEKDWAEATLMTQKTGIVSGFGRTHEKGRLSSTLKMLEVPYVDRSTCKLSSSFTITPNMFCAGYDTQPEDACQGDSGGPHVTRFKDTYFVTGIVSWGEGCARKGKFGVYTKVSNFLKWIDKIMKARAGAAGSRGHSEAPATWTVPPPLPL
Sequence (P00743 41-180 partner limits assumed): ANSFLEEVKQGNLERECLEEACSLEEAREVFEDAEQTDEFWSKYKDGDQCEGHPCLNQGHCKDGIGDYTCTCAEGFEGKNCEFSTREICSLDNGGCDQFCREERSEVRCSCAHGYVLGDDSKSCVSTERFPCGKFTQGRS
assay.details: Protease inhibitory assay, chromogenic substrate S-2222
Format: biochemical
reported.conditions: FactorXa Ki determination; substrate 100 µM; cmpd conc 200 µM
Just the number, please.

Problem: bovine factor Xa (Bos taurus) / V0 / Vi / CC(=O)c1sc(-c2ccc(O)cc2)nc1C [SX-E1] : value?
Solution: 1.16

Problem: Value wanted: V0 / Vi (bovine factor Xa (Bos taurus)) of entry Oc1ccccc1N1CCCCC1 [SX-A12]
Solution: 1.21

Problem: Entry c1ccc(Nc2nncs2)cc1 [SX-D8] , system bovine factor Xa (Bos taurus): what V0 / Vi was measured?
Solution: 1.15

Problem: Lab request: please report V0 / Vi under test system bovine factor Xa (Bos taurus) for O=C(c1ccccc1F)N1CCNCC1 [SX-E12]
Solution: 1.26

Problem: Provide value of V0 / Vi for this record tested with bovine factor Xa (Bos taurus): Cn1c(N)nc2ccccc21 [SX-A6]
Solution: 1.48

Problem: Find the measured V0 / Vi: item Cc1cc2ccccc2nc1N [SX-A1] , target or system bovine factor Xa (Bos taurus).
Solution: 1.84

Problem: Query the reported V0 / Vi for bovine factor Xa (Bos taurus); item: COc1ccccc1CC1CCNCC1.Cl [SX-B12]
Solution: 1.28

====

inhibition at 10 µM overview
target.under.test: human 5-HT7b receptor (Homo sapiens, UniProt P34969)
Construct: expressed in transfected cells
Sequence (P34969 1-432): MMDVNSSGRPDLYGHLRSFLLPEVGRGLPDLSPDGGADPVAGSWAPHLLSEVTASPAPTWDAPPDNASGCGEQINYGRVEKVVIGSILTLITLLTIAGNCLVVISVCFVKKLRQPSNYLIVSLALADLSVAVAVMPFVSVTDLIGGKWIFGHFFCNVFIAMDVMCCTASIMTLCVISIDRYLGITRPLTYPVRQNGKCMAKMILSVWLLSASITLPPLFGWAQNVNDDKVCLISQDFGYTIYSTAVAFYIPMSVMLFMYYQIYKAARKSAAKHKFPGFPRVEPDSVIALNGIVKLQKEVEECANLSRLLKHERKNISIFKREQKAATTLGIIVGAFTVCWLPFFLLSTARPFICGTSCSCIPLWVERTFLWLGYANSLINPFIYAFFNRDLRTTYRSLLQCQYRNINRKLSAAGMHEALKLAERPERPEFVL
assay.details: GPCR radioligand binding assay, [3H]-5-CT displacement, HEK293 membranes
reported.conditions: 5-HT7; average of exp_1 and exp_2; read-out: %inh 5-HT7 average
Give the number; % is assumed, so skip it.

# compound, inhibition at 10 µM / %
rows = [
    ("CC1CCc2sc(C(=O)O)cc2C1 (stereo not shown) [SX045]", 4.44),
]

Problem: Quick one: inhibition at 10 µM for CS(=O)(=O)Nc1ccc(C(=O)O)cc1 [SX084] ?
Solution: 9

Problem: I have this compound here, Cn1c(N)nc2ccccc21 [A6] , and I need its recorded inhibition at 10 µM.
Solution: -10

Problem: Report inhibition at 10 µM for Nc1nnc(-c2cccs2)[nH]1 [D3] please.
Solution: -1.67
